Each recorded value in this set is attributed to patent US20210371503A1.

Target: receptor-binding domain (RBD) of the spike (S) protein of SARS-CoV-2 (SARS-CoV-2, UniProt P0DTC2 319-541)
Sorting guide: entries reporting Kd beneath 200 pM go in the label 1 pile, the rest go in the label 0 pile.

Example entries begin here.
1. MnC4t2p1_B3 (antibody, V domains shown) VH: EVQLVESGGHLVQPGRSLRLSCAASGFTFDDYAMHWVRQVPGKGLEWVSGISWNGGILDYADSVKGRFTISRDNAKNSLYLHMRSLRTDDTALYYCAKDLRRQDYYADWYFDLWGRGTLVTVSS VL: DIQMIQSPSSVSASVGDRVTITCRASQGISSWLAWYQQKPGKAPKLLIYAASTLLSAVPSRFSGSGSGTDFTLTISSLQPEDFATYYCQQGNSFPFTFGPGTIVDV: label 1
2. MnC4t2p2_A4 (antibody, V domains shown) VH: QVQLVQSGSELKKPGASVKISCKASGYIFINYAMNWVRQAPGQGLEWMGWINTNTGNPTYAQDFTGRFVFSLDTSLSTAYLQISSLEAEDTAVYYCAKIGSRNSLGVWGQGTLVTVSA VL: EIVLTQSPGTLSLSPGERATLSCRASHSVDRSYLAWYQQKPGLAPRLLIYGASSRATGIPDRFSGSGSGTDFTLTISRLEPEDFALYYCQHFGTSSVTFGRGTRLEIK: label 0
3. MnC2t2p1_C11 (antibody, V domains shown) VH: QVQLVQSGAEVKKPGSSVKVSCKASGGTFSRYTIIWVRQAPGQGLEWMGRIIPILDIANYAQKFQGRVTITADKSTSTAYMELSSLRSEDTAVYYCAREGGLDYFGSRNSGWTYTWFDPWGQGTLVTVSS VL: DIQMTQSPSSLSASVGDRVTITCRASQNISSYLNWYQQKPGKAPNLLIYAASSLQSGVPPRFSGSGSGTDFTLTISSLQPEDFATYYCQQSYSTLYSFGQGTKLEIK: label 1
4. FnC1t2p1_G5 (antibody, V domains shown) VH: QVQLVQSGSELKKPGASVKVSCKASGYTFLRFAMNWLRQAPGQGLEWMGWIDTNTGTPTYAQGFTGRFVFSLDTSVSTAYLQISSLKAEDTAVYYCARSLRGANLVPWGQGTLVTVSS VL: DIQMTQSPSSLSASVGDRVTITCQASQDVSNYLNWYQQQPGKAPKLLIYDAFNLETGVPSRFSGSGSGTDFTFTISSLQPEDIATYYCQQYDNLPLTFGGGTKVEIK: label 1

Moving on to the next binder.
For MnC2t1p1_A3 (antibody, V domains shown) VH: EVQLVESGGGLVQPGGSLRLSCAASGFTVSSNYMSWVRQAPGRGLEWVSVIYSGGSTFYADSVKGRFTISRDNSKNTLYLQMNSLRPEDTAVYYCATGARFGESPFDYWGQGTLVTVSS VL: DIQMTQSPSSVSASVGDRVTITCRASQGISSWLAWYQQKPGKAPKLLIYAASSLQSGVPSRFSGSGSGTDFTLTISSLQPEDFATYYCQQANSFPGTFGQGTKVEIK , is the recorded Kd below the cut-off of 200 pM?
label 0
